Where do these numbers come from? They come from patent US9469653B2.

# target_entity: human MAO-B enzyme (Homo sapiens (Human), UniProt P27338)
# Sequence (P27338 whole entry): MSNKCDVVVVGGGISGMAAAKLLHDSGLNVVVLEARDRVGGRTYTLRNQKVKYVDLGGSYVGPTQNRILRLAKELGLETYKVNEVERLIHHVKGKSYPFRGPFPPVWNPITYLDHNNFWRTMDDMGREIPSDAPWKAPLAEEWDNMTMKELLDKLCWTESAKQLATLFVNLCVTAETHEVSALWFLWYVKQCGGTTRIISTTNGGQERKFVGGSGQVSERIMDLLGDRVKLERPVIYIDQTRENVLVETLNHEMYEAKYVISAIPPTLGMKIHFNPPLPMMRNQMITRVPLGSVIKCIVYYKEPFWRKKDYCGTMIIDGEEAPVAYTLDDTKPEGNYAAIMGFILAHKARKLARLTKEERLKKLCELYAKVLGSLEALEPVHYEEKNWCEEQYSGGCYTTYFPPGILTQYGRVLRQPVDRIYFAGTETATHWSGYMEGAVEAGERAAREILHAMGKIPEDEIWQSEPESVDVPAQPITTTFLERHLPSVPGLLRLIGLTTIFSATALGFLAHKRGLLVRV
# test_details: Screening of MAO-B activity inhibition (Amplex Red monoamine oxidase assay kit, benzylamine substrate)
# Type: biochemical
# condition_set: 10 uM of the synthesized compound, pargyline-corrected
Property: Remaining activity of MAO-B (%); scope: individual compounds
Respond with the bare value in %.

Sample records with Remaining activity of MAO-B (%):
> print(dat)
                                   compound                             target.entity                 measurement.type  unit.of.measure  reported.result
1  CN(Cc1ccccc1)c1ccc2nc(-c3ccccc3)sc2n1 [Example 5-64]  human MAO-B enzyme (Homo sapiens (Human), UniProt P27338)  Remaining activity of MAO-B (%)                %             47.8
2  Fc1ccc(-c2nc3ccc(N4CCCCCC4)nc3o2)cc1 [Example 5-56]  human MAO-B enzyme (Homo sapiens (Human), UniProt P27338)  Remaining activity of MAO-B (%)                %             61.4
3  CN(Cc1ccccc1)c1ccc2nc(-c3ccccc3Cl)oc2n1 [Example 5-65]  human MAO-B enzyme (Homo sapiens (Human), UniProt P27338)  Remaining activity of MAO-B (%)                %             84.1
4  c1ccc(-c2nc3ccc(N4CCCCCC4)nc3o2)cc1 [Example 5-54]  human MAO-B enzyme (Homo sapiens (Human), UniProt P27338)  Remaining activity of MAO-B (%)                %             57.5
5  Cc1cccc(-c2nc3ccc(N4CCCCC4)nc3o2)c1 [Example 5-42]  human MAO-B enzyme (Homo sapiens (Human), UniProt P27338)  Remaining activity of MAO-B (%)                %             −7.8
6  CNc1ccc2nc(-c3ccc(OC)cc3)oc2n1 [Example 5-79]  human MAO-B enzyme (Homo sapiens (Human), UniProt P27338)  Remaining activity of MAO-B (%)                %             84.5
7  c1ccc(-c2nc3ccc(N4CCCC4)nc3s2)cc1 [Example 5-31]  human MAO-B enzyme (Homo sapiens (Human), UniProt P27338)  Remaining activity of MAO-B (%)                %              1.7
8  CNc1ccc2nc(-c3ccc(Cl)cc3)oc2n1 [Example 5-77]  human MAO-B enzyme (Homo sapiens (Human), UniProt P27338)  Remaining activity of MAO-B (%)                %             4.14

Value sought: Remaining activity of MAO-B (%), system human MAO-B enzyme (Homo sapiens (Human), UniProt P27338), item Clc1ccccc1-c1nc2ccc(N3CCCCC3)nc2o1 [Example 5-39] . Result: 0.6

Recorded Remaining activity of MAO-B (%) for CNc1ccc2nc(-c3cccc(F)c3)oc2n1 [Example 5-75] on human MAO-B enzyme (Homo sapiens (Human), UniProt P27338) was 22

# value of Remaining activity of MAO-B (%), human MAO-B enzyme (Homo sapiens (Human), UniProt P27338), item Clc1cccc(-c2nc3ccc(N4CCCCC4)nc3o2)c1 [Example 5-41] = 17
